# tested_target: T1, human α4β7 integrin on cells (human, UniProt P13612 34-1032; P26010 20-798)
# T1 construct: whole, on cells; also called α4β7 cell (Hu); RPMI8866 cells
# method_summary: RPMI8866 cell adhesion to MAdCAM-1
Numbered stars: 1 amine (or outer) side, 2 acyl side, 3 side chain; on linkers, the order of the positions; unused ones are H or OH. Bridge positions count the residues as written; N and C are the ends. Square brackets hold non-standard residues; d marks the D form. * marks the point of attachment. Glu(OMe) = L-glutamic acid gamma-methyl ester, COC(=O)CC[C@H](N[*:1])C(=O)[*:2]; Phe(4-COOH) = N[C@@H](Cc1ccc(C(=O)O)cc1)C(=O)O; Phe(4-tBu) = CC(C)(C)c1ccc(C[C@H](N)C(=O)O)cc1; Phe(4-F) = N[C@@H](Cc1ccc(F)cc1)C(=O)O; NMeR = CN[C@@H](CCCNC(=N)N)C(=O)O; Myristoyl = CCCCCCCCCCCCCC(=O)*; β3hE = N[C@@H](CCC(=O)O)CC(=O)O; Pen = CC(C)(S)[C@H](N)C(=O)O
Give measured IC50 for each item. Keep answers brief.

Any idea what IC50 was measured for Ac-[Pen][NMeR]SDTL[Pen][Phe(4-COOH)][β3hE][dK]-NH2 (disulfide 1-7; not fully specified (residue 10); printed as (Ac Pen N-Me-R S D T L Pen F(4-COOH) b-H-E k NH2)2 DIG, disulfide Pen-Pen; also: homodimer, two subunits joined by DIG linker) [SEQ ID NO: 130] ?
≤ 10 nM

Moving on to Ac-[Pen][NMeR]SDTL[Pen][Phe(4-tBu)][β3hE][dK]-NH2 (disulfide 1-7; not fully specified (residue 10); printed as (Ac Pen N-Me-R S D T L Pen F(4-tBu) b-H-E k NH2)2 IDA PEG4 Biotin, disulfide Pen-Pen; also: homodimer (…)2 IDA PEG4 Biotin via D-Lys10 NZ) [SEQ ID NO: 167]
≤ 10 nM

Moving on to Ac-[Pen][NMeR]SDTL[Pen]W[Glu(OMe)][dK]-NH2 (disulfide 1-7; not fully specified (residue 10); printed as (Ac Pen N-Me-R S D T L Pen W E(OMe) k NH2)2 DIG, disulfide Pen-Pen; also: homodimer: two subunits linked by DIG via D-Lys10 side chain) [SEQ ID NO: 86]
≤ 10 nM

Moving on to Ac-[Pen][NMeR]SDTL[Pen]W[dE][dK]-NH2 (disulfide 1-7; not fully specified (residue 10); printed as (Ac Pen N-Me-R S D T L Pen W e k NH2)2 IDA PEG4 Biotine, disulfide Pen-Pen; also: homodimer: two subunits linked by IDA via D-Lys10 side chain, PEG4-Biotine on the linker) [SEQ ID NO: 72]
> 25 nM

Moving on to Myristoyl-[Pen][NMeR]SDTL[Pen][Phe(4-tBu)][β3hE][dK]-NH2 (disulfide 1-7) [SEQ ID NO: 181]
> 1000 nM

Moving on to Ac-[Pen][NMeR]SDTL[Pen][Phe(4-F)][dE][dK]-NH2 (disulfide 1-7; not fully specified (residue 10); printed as (Ac Pen N-Me-R S D T L Pen F(4-F) e k NH2)2 DIG, disulfide Pen-Pen; also: homodimer: two subunits joined by DIG linker) [SEQ ID NO: 107]
> 25 nM
